# credit: patent US20180066015A1

# testSystem: Recombinant human hepsin (4776-SE-010, R&D Systems), activated (human, UniProt P05981)
# testDetails: fluorogenic inhibition assay
No end group written: not given here. *: point of attachment. kbt = C-terminal ketobenzothiazole, c1ccc2sc(*)nc2c1; Fmoc = O=C(OCC1c2ccccc2-c2ccccc21)*

- binder: "Fmoc-Met-Arg-kbt [Fmoc-MR-kbt]"
  unitsOfMeasure: "nM"
  Ki: 490
- binder: "Fmoc-Ile-Arg-kbt [Fmoc-IR-kbt]"
  unitsOfMeasure: "nM"
  Ki: 297
- binder: "Fmoc-Val-Arg-kbt [Fmoc-VR-kbt]"
  unitsOfMeasure: "nM"
  Ki: 314
- binder: "Ac-SKLR (not fully specified (C-terminus)) [Ac-SKLR(SEQ ID NO: 10)-Kbt-Phe-NH2]"
  unitsOfMeasure: "nM"
  Ki: 0.14
